Entries and their IC50 values follow.
Target: Muscarinic acetylcholine receptor M2 (Homo sapiens, UniProt P08172)
Sequence (P08172 whole entry): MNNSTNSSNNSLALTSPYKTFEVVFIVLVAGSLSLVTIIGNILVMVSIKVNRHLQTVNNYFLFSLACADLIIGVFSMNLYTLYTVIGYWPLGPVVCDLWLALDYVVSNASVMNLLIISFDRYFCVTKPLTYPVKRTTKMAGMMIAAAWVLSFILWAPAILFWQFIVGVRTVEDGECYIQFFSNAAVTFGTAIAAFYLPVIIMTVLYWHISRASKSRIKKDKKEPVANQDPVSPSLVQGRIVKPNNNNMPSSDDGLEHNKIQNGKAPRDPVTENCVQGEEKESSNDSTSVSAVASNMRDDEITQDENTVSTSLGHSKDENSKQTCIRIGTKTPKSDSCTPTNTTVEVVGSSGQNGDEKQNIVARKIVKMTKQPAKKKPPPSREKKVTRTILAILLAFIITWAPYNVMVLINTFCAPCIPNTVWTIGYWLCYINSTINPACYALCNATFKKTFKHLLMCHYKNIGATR
Experiment: Antagonist activity at human recombinant muscarinic M2 receptor expressed in CHO cells coexpressing chimeric G protein Gqi5 assessed as inhibition of acetylcholine-induced intracellular Ca2+ mobilization by FLIPR assay

Prompt line: Looking for the measured IC50 of CCN(CC)C(=O)c1ccc(NC(=O)N[C@@H](Cc2ccc(O)cc2)C(=O)NC2CCN(Cc3ccc(C#N)cc3)C2)cc1 (stereo partly drawn) , can you help?
Response line: > 3.16 µM

---
Prompt line: Return reported IC50; argument: N#Cc1ccc(CN2CCC(NC(=O)[C@H](Cc3ccc(O)cc3)NC(=O)Nc3ccc(C(=O)Nc4ccccc4)cc3)C2)cc1 (stereo partly drawn)
Response line: > 3.16 µM

Prompt line: Query: IC50; subject: N#Cc1ccc(CN2CCC(NC(=O)[C@H](Cc3ccc(O)cc3)NC(=O)Nc3ccc(C(=O)NCc4ccccc4)cc3)C2)cc1 (stereo partly drawn)
Response line: > 3.16 µM

====

target: Muscarinic acetylcholine receptor M1 (Homo sapiens, UniProt P11229); test: Antagonist activity at human recombinant muscarinic M1 receptor expressed in CHO cells assessed as inhibition of acetylcholine-induced intracellular Ca2+ mobilization by FLIPR assay
Sequence (P11229 whole entry): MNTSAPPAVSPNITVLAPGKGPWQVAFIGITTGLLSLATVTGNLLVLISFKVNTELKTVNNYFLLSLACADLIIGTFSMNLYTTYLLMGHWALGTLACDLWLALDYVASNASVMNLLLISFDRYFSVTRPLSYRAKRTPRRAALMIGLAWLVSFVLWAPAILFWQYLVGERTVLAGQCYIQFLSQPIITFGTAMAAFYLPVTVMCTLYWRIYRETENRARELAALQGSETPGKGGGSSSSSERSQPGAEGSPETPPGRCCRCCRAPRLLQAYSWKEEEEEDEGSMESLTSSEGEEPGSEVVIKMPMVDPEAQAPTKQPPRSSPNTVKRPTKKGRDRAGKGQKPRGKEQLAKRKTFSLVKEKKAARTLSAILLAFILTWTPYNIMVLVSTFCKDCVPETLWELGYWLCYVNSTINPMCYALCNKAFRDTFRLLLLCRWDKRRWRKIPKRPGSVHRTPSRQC
READOUT: IC50 (nM)

Prompt line: Give recorded IC50 with Muscarinic acetylcholine receptor M1 (Homo sapiens, UniProt P11229) for the following molecule: CCOC(=O)c1ccc(NC(=O)N[C@@H](Cc2ccc(Cl)c(Cl)c2)C(=O)N[C@H]2CC[N+](C)(Cc3ccc4c(c3)OCO4)C2)cc1 (stereo not given in full)
Response line: 39.8

I = CCOC(=O)c1ccc(NC(=O)N[C@@H](Cc2ccc(O)cc2)C(=O)NC2CCN(Cc3ccc(OC)cc3)C2)cc1 (stereo not given in full)
II = CCOC(=O)c1ccc(NC(=O)N[C@@H](Cc2cccc(Cl)c2)C(=O)N[C@H]2CC[N+](C)(Cc3ccc4c(c3)OCO4)C2)cc1 (stereo not given in full)
Prompt line: In terms of reported IC50, does I or II have the smaller number? Give the label of your selection.
Response line: II
(II: 25.1 nM, I: 501 nM)
